System: P388
TEST_SUMMARY: Cytotoxicity against mouse P388 cells
Type: functional
TEST_SETTINGS: read-out: ED50 (the source's name)
Would you kindly list log10 of EC50 for each of these compounds?
Please be aware that the numbers have been log10-transformed from EC50 in µg/mL.

Example cases with answers are listed next.
{"COMPOUND": "Sc1ncnc2nc[nH]c12 [MERCAPTOPURINE ANHYDROUS]", "log10 of EC50": -0.15}
{"COMPOUND": "CC(=O)O[C@@H]1C(=O)C2C1CC/C=C(\\C)CC[C@@H]2[C@H](C)CCC=C(C)C (stereo partly specified) [ACETYLCORIACENONE]", "log10 of EC50": 0.64}
{"COMPOUND": "CC(=O)OC[C@H]1/C(C=O)=C\\C/C=C(\\C)C[C@H](O)[C@@H]1[C@@H](C)CCC=C(C)C [HYDROXYACETYLDICTYOLAL]", "log10 of EC50": 0.59}
{"COMPOUND": "CC(=O)O[C@H]1C(=O)C2C1CC/C=C(\\C)CC[C@@H]2[C@H](C)CCC=C(C)C (stereo partly specified) [ISOACETYLCORIACENONE]", "log10 of EC50": 0.78}

Please examine the following record next.
// recorded log10 of EC50 for CC(=O)O/C=C1/CC/C=C(\C)C[C@@H]2OC(=O)[C@H]1[C@H]2[C@@H](C)CCC=C(C)C [DILOPHOLIDE] : -0.30
